Biological target: T1, human IL-36R extracellular domain expressed with a C-terminal myc-myc-hexahistidine tag (hIL-36R-MMH) (human, UniProt Q9HB29 20-337)
T1 construct: also called Human IL-36R-MMH; REGN2105
T1 sequence (Q9HB29 other isoform, or with tags, fused parts or gaps limits assumed): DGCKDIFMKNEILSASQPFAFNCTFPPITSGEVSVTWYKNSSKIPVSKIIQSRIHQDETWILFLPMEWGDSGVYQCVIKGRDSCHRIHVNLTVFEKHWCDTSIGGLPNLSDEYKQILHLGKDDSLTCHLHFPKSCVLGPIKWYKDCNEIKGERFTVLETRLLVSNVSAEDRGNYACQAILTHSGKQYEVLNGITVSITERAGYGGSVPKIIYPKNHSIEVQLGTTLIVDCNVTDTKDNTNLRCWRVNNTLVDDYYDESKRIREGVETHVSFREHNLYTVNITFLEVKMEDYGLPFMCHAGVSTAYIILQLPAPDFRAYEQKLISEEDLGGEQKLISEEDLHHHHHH
Test: SPR Biacore T200, mAb captured on anti-hFc, 37C, PBS-T pH 6.0 running buffer
Give measured 100 nM hIL-36R-MMH Bound (RU) for each item. Keep answers brief.
Numbers only, in RU.

As a guide, the following entries are already answered.
[[record]]
binder = "H4H14699P2 (antibody, human IgG4 S228P, kappa, V domains shown, Fully human anti-IL-36R antibody) VH: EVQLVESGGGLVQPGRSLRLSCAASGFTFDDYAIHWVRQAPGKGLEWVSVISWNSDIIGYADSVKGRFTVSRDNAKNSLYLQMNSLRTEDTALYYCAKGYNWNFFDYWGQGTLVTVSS VL: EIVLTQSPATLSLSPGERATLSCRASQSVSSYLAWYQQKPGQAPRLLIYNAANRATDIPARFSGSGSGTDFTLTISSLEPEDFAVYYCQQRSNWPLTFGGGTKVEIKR"
experimental_value = 83

[[record]]
binder = "H4H14709P (antibody, human IgG4 S228P, kappa, V domains shown, Fully human anti-IL-36R antibody) VH: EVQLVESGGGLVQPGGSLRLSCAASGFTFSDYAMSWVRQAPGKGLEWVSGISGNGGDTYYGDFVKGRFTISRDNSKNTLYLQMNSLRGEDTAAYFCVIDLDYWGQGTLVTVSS VL: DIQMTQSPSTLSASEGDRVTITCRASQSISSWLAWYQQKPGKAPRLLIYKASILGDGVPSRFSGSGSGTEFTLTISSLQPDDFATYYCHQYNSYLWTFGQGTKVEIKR"
experimental_value = 146


Give me measured 100 nM hIL-36R-MMH Bound (RU), please, for this binder: H4H14757P (antibody, human IgG4 S228P, kappa, V domains shown, Fully human anti-IL-36R antibody) VH: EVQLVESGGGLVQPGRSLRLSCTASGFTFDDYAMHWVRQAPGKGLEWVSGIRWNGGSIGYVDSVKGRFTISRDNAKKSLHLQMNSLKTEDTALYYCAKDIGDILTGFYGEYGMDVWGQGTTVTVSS VL: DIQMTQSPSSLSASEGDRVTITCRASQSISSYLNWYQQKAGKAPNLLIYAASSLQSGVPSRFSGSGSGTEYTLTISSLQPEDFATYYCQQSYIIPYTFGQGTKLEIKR
109
